These entries and their values trace back to patent US20250230247A1.

# assay_target: T1, human Dectin-1 (biosensor tests of Tables 3, 4A and 9; construct not stated) (human, UniProt Q9BXN2 66-247, limits assumed)
# T1 construct: also called hDectin-1
# T1 sequence (looked up): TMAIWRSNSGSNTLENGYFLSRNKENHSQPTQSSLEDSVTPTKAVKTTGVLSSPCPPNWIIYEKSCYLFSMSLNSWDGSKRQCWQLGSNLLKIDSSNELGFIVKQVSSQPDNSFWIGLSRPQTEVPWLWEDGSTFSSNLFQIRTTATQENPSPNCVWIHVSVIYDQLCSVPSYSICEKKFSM
# assay_remarks: Octet response
metric_name: X = 290
// response body must contain only the number

2M24A.1.22 (Fab, V domains shown, Fab; also called 2M24.1.22) VH: QVQLVQSGAEVKKPGASVKVSCKSSGYTFTDYYIHWVRQAPGQGLEWMGWINPNSGDTNYAQKFQGRITMTRDTSISTAYLELSRLRSDDTAVFYCARNSGSYSFGAWGQGTLVTVSS VL: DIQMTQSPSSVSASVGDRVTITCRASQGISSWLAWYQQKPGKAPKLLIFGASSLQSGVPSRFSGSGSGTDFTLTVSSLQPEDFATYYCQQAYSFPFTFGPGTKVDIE : 0.131

From here, focus on the item given below.
Consider the binder shown here: 2M24A.1.23 (Fab, V domains shown, Fab; also called 2M24.1.23) VH: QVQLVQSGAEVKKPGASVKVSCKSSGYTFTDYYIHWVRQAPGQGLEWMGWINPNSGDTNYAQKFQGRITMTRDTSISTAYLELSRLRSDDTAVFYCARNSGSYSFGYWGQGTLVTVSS VL: DIQMTQSPSSVSASVGDRVTITCRASQGISSWLAWYQQKPGKAPKLLIFGASSLQSGVPSRFSGSGSGTDFTLTVSSLQPEDFATYYCAQAYSFPFTFGPGTKVDIE What is its recorded X = 290?
0.128
